# tested_target: T1, human TREM2 (human, UniProt Q9NZC2 19-174, limits assumed)
# T1 sequence: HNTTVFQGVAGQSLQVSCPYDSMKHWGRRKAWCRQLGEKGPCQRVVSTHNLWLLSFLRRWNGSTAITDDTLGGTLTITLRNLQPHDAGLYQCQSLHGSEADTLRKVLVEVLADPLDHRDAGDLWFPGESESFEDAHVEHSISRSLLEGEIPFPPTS
# protocol_summary: yeast-displayed Fab FACS, 2nd screen 10 nM
metric_name: binding signal fold over 6E7 parental (fold)
Numbers only; they are read as fold.

Some binders with recorded binding signal fold over 6E7 parental:
binder="V36 (Fab, V domains shown) VH: EVQLVQSGAEVKKPGESLKISCKGSGYSFTSYWLAWVRQMPGKGLEWMGIIYPGDSDTRYSPSFQGQVTISADKSISTAYLQWSSLKASDTAMYFCARSRTFYYDSSDYFDYWGQGTLVTVSS VL: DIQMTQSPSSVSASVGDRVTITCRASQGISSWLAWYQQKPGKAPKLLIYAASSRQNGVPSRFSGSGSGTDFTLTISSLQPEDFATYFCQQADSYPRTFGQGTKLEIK" result_value=3.44
binder="V3 (Fab, V domains shown) VH: EVQLVQSGAEVKKPGESLKISCKGSGYSFASYWIAWVRQMPGKGLEWMGIIYPGDSDTRYSPSFQDQVTISADKSISTAYLQWSSLKASDTAMYFCARGRTFYYDSSDYFDYWGQGTLVTVSS VL: DIQMTQSPSSVSASVGDRVTITCRASQGISSWLAWYQQKPGKAPKLLIYAASSRQNGVPSRFSGSGSGTDFTLTISSLQPEDFATYFCQQADRFPRTFGQGTKLEIK" result_value=2.24
binder="V29 (Fab, V domains shown) VH: EVQLVQSGAEVKKPGESLKISCKGSGYSFKSYWIAWVRQMPGKGLEWMGIIYPGDSDTRYSPSFQGQVTISADKSISTAYLQWSSLKASDTAMYFCARQRTFYYDSSDYFDYWGQGTLVTVSS VL: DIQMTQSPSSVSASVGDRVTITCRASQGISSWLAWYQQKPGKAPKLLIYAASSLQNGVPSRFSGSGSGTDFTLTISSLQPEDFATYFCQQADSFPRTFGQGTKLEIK" result_value=1.67
binder="V76 (Fab, V domains shown) VH: EVQLVQSGAEVKKPGESLKISCKGSGYSFGSYWIAWVRQMPGKGLEWMGIIYPGDSDTRYSPEFQGQVTISADKSISTAYLQWSSLKASDTAMYFCARQRTFYYDSSDYSDYWGQGTLVTVSS VL: DIQMTQSPSSVSASVGDRVTITCRASQGISSWLAWYQQKPGKAPKLLIYAASSLQKGVPSRFSGSGSGRDFTLTISSLQPEDFATYFCQQADSFPRTFGQGTKLEIK" result_value=4.93

Query string: binding signal fold over 6E7 parental lookup needed for V87 (Fab, V domains shown) VH: EVQLVQSGAEVKKPGESLKISCKGSGYSFRSYWIAWVRQMPGKGLEWMGIIYPGDSDVRYSPDFQGQVTISADKSISTAYLQWSSLKASDTAMYFCARSRTFYYDSSDYFDYWGQGTLVTVSS VL: DIQMTQSPSSVSASVGDRVTITCRASQGISSWLAWYQQKPGKAPKLLIYAASSLQWGVPSRFSGSGSGTDFTLTISSLQPEDFATYFCQQADSFPRTFGQGTKLEIK , thanks.
Result string: 3.93
